test system: pigweed (Amaranthus retroflexus); test: Test A preemergence, pigweed; assay type: in vivo; settings: 125 g ai/ha, visual injury on 0 to 100 scale (0 no effect, 100 complete control), approximately 10 days
Endpoint Label: Pigweed plant response rating
// return just the number, without any unit appended

Answered examples (5):
INSERT INTO assay_data (molecule, endpoint_label, reported_value) VALUES
  ('COc1cc(-c2cc(NS(=O)(=O)C(F)(F)F)c(C)cc2C)c(=O)n(C)n1 [Compound 70]', 'Pigweed plant response rating', 80),
  ('COC1(OC)CCN(C(=O)c2cc(NS(=O)(=O)C(F)(F)F)c(C)cc2C)CC1 [Compound 101]', 'Pigweed plant response rating', 90),
  ('COc1ccnn(-c2cc(NS(=O)(=O)C(F)(F)F)c(C)cc2C)c1=O [Compound 60]', 'Pigweed plant response rating', 100),
  ('Cc1ccc(=O)n(-c2cc(NS(=O)(=O)C(F)(F)F)c(C)cc2C)n1 [Compound 85]', 'Pigweed plant response rating', 100),
  ('CCCn1nccc(-c2cc(NS(=O)(=O)C(F)(F)F)c(C)cc2C)c1=O [Compound 58]', 'Pigweed plant response rating', 0);

Ask: Find the measured Pigweed plant response rating: item Cc1cc(C)c(-c2cc(C(F)(F)F)nn(C)c2=O)cc1NS(=O)(=O)C(F)(F)F [Compound 71] , target or system pigweed (Amaranthus retroflexus).
Result: 40

Ask: Find the measured Pigweed plant response rating: item Cc1c(NS(=O)(=O)C(F)(F)F)cc(C(=O)N2CCC(F)CC2)c(C)c1F [Compound 109] , target or system pigweed (Amaranthus retroflexus).
Result: 100

Ask: Find the measured Pigweed plant response rating: item COC1CCCN(C(=O)c2cc(N(S(=O)(=O)C(F)(F)F)S(=O)(=O)C(F)(F)F)c(C)cc2C)C1 (stereo not drawn) [Compound 119] , target or system pigweed (Amaranthus retroflexus).
Result: 100

Ask: Find the measured Pigweed plant response rating: item Cc1cc(Cl)c(C2=NOC(C)(C)C2)cc1N(S(=O)(=O)C(F)(F)F)S(=O)(=O)C(F)(F)F [Compound 184] , target or system pigweed (Amaranthus retroflexus).
Result: 70

###

Recorded Plant response rating, Foxtail, Giant, one value per entry.
system: Foxtail, Giant (giant foxtail, Setaria faberi); test: Test A1 postemergence, Foxtail, Giant; type: in vivo; details: Postemergence, 31 g ai/ha; 0 to 100 scale (0 no effect, 100 complete control); 10 days
// return just the number, without any unit appended

Answered examples (5):
INSERT INTO measurements (compound, tested_system, endpoint_label, reported_value) VALUES
  ('Cc1c(C(=O)N2CCC(F)CC2)cc(N(COC(=O)C(C)(C)C)S(=O)(=O)C(F)(F)F)c(C)c1C [Compound 361]', 'Foxtail, Giant (giant foxtail, Setaria faberi)', 'Plant response rating, Foxtail, Giant', 10),
  ('CCOC(=O)N(c1cc(C(=O)N2C[C@@H](C)O[C@@H](C)C2)c(C)c(C)c1C)S(=O)(=O)C(F)(F)F [Compound 332]', 'Foxtail, Giant (giant foxtail, Setaria faberi)', 'Plant response rating, Foxtail, Giant', 30),
  ('CCOC(=O)N(c1cc(C(=O)N2CCCCC2)c(C)c(C)c1C)S(=O)(=O)C(F)(F)F [Compound 330]', 'Foxtail, Giant (giant foxtail, Setaria faberi)', 'Plant response rating, Foxtail, Giant', 20),
  ('CCC1ON=C(c2cc(NS(=O)(=O)C(F)(F)F)c(C)cc2C)C1CC (stereo not drawn) [Compound 343]', 'Foxtail, Giant (giant foxtail, Setaria faberi)', 'Plant response rating, Foxtail, Giant', 0),
  ('CCOC(=O)N(c1cc(C(=O)N2CCC(C)CC2)c(C)cc1C)S(=O)(=O)C(F)(F)F [Compound 354]', 'Foxtail, Giant (giant foxtail, Setaria faberi)', 'Plant response rating, Foxtail, Giant', 0);

Continue with the next compound.
Ask: Please report the recorded Plant response rating, Foxtail, Giant for COc1cc(C)c(C2=NOC3(CCCC3)C2)cc1NS(=O)(=O)C(F)(F)F [Compound 304] .
Result: 0

###

Tested on: Ryegrass, Italian (Italian ryegrass, Lolium multiflorum)
Test: Test A preemergence, Ryegrass, Italian
Assay type: in vivo
Settings: Preemergence, 125 g ai/ha; visual injury on 0 to 100 scale (0 no effect, 100 complete control), approximately 10 days
Text: Seeds of plant species selected from barnyardgrass (Echinochloa crus-galli), kochia (Bassia scoparia), ragweed (common ragweed, Ambrosia artemisiifolia), Ryegrass, Italian (Italian ryegrass, Lolium multiflorum), Foxtail, Giant (giant foxtail, Setaria faberi), and pigweed (Amaranthus retroflexus) were planted into a blend of loam soil and sand and treated preemergence with a directed soil spray using test chemicals formulated in a non-phytotoxic solvent mixture which included a surfactant. […]
Answer N if Ryegrass, Italian plant response rating is under 80, and Y if it is 80 or more.

Example entries and their recorded answers appear below.
INSERT INTO assay_data (molecule, assigned_label) VALUES
  ('Cc1cc(C)c(N(COC(=O)c2ccccc2)S(=O)(=O)C(F)(F)F)cc1C1=NOC2(CCCC2)C1 [Compound 149]', 'N'),
  ('CO[C@@H]1CCCN(C(=O)c2cc(N(S(=O)(=O)C(F)(F)F)S(=O)(=O)C(F)(F)F)c(C)cc2C)C1 [Compound 95]', 'Y'),
  ('Cc1cc(C)c(N(COC(=O)C2CCCC2)S(=O)(=O)C(F)(F)F)cc1C1=NOC2(CCCC2)C1 [Compound 150]', 'Y'),
  ('Cc1cc(C)c(C2=NOC3(C2)CC(C)CC(C)C3)cc1NS(=O)(=O)C(F)(F)F (single isomer, unassigned) [Compound 167]', 'N'),
  ('Cc1cc(C)c(-c2cc(Cl)nn(C)c2=O)cc1NS(=O)(=O)C(F)(F)F [Compound 72]', 'Y'),
  ('Cc1cc(C)c(C2=NOC3(C2)CC(C)CC(C)C3)cc1NS(=O)(=O)C(F)(F)F (single isomer, unassigned) [Compound 168]', 'N'),
  ('Cc1cc(C)c(N(COC(=O)CC(C)C)S(=O)(=O)C(F)(F)F)cc1C1=NOC2(CCCC2)C1 [Compound 152]', 'N'),
  ('C#CCN(C)C(=O)c1cc(N(S(=O)(=O)C(F)(F)F)S(=O)(=O)C(F)(F)F)c(C)c(F)c1C [Compound 147]', 'Y');

Ask: Could you verify whether the entry CCn1nc(C)cc(-c2cc(NS(=O)(=O)C(F)(F)F)c(C)cc2C)c1=O [Compound 68] shows Ryegrass, Italian plant response rating of no less than 80?
Result: Y

Ask: Could you verify whether the entry Cc1cc(C)c(C2=NOC3CCCCC23)cc1NS(=O)(=O)C(F)(F)F (stereo not shown) [Compound 123] shows Ryegrass, Italian plant response rating of no less than 80?
Result: Y

Ask: Could you verify whether the entry Cc1cc(C2CC2)c(NS(=O)(=O)C(F)(F)F)cc1C(=O)N1CCOCC1 [Compound 13] shows Ryegrass, Italian plant response rating of no less than 80?
Result: N

Ask: Could you verify whether the entry Cc1cc(C)c(N(S(=O)(=O)C(F)(F)F)S(=O)(=O)C(F)(F)F)cc1C1=NOC2(CCC(C)(C)CC2)C1 [Compound 139] shows Ryegrass, Italian plant response rating of no less than 80?
Result: N

Ask: Could you verify whether the entry CC(=O)N(c1cc(-c2ccnn(C)c2=O)c(C)cc1C)S(=O)(=O)C(F)(F)F [Compound 56] shows Ryegrass, Italian plant response rating of no less than 80?
Result: Y

###

Recorded Kochia plant response rating, one value per entry.
system: kochia (Bassia scoparia); assay: Test A postemergence, kochia; format: in vivo; conditions: Postemergence, 500 g ai/ha; visual injury vs untreated controls after approx. 10 days; 0 to 100 scale (0 no effect, 100 complete control)
// return just the number, without any unit appended

Answered examples (2):
INSERT INTO measurements (compound, tested_system, reported_value) VALUES
  ('Cc1cc(C)c(N(S(=O)(=O)C(F)(F)F)S(=O)(=O)C(F)(F)F)cc1C1=NOC(C)(CCl)C1 (centres unmarked) [Compound 227]', 'kochia (Bassia scoparia)', 60),
  ('Cc1c(NS(=O)(=O)C(F)(F)F)cc(C(=O)N2CCCCC2)c(C)c1F [Compound 191]', 'kochia (Bassia scoparia)', 20);

Ask: Please report the recorded Kochia plant response rating for C#CCN(C)C(=O)c1cc(N(S(=O)(=O)C(F)(F)F)S(=O)(=O)C(F)(F)F)c(C)c(F)c1C [Compound 147] .
Result: 70

Ask: Please report the recorded Kochia plant response rating for C#CCN(C)C(=O)c1cc(NS(=O)(=O)C(F)(F)F)c(C)c(F)c1C [Compound 179] .
Result: 70

Ask: Please report the recorded Kochia plant response rating for Cc1cc(C)c(N(S(=O)(=O)C(F)(F)F)S(=O)(=O)C(F)(F)F)cc1C1=NOC2(CCC(C)(C)CC2)C1 [Compound 139] .
Result: 50
